Test system: MMP-13
Assay: MMP-13 Production Inhibition Test
Assay type: cell-based, human
Settings: Homo sapiens; 30 μmol/L; SW1353 cells stimulated with IL-1β 10 ng/mL; MMP-13 in culture supernatant by ELISA 16 hours after stimulation; read-out: Inhibition rate (%) at 30 μmol/L
Criterion: inhibition at 30 µM meeting or surpassing 90%. Met: MET. Not met: NOT MET.

O=C(Nc1cc(-c2ccccc2)ccc1C(=O)O)c1cc(-c2ccccc2)ncn1    MET
O=C(Nc1cc(CCc2ccccc2)ccc1C(=O)O)c1cncc(-n2cccc2)c1    NOT MET
O=C(/C=C/c1ccc(Cl)c(Cl)c1)Nc1cc(Oc2ccccc2)ccc1C(=O)O    MET
O=C(Nc1cc(Oc2ccccc2)ccc1C(=O)O)c1ccc2occc2c1    MET
Cc1cccc(C(=O)Nc2cc(CCc3ccccc3)ccc2C(=O)O)c1C    MET
O=C(Nc1cc(-c2ccccc2)ccc1C(=O)O)c1ccccc1    NOT MET

API: the following record is the query input.
Q. Please check the record `O=C(Nc1cc(OC2CCCCC2)ccc1C(=O)O)c1ccccc1` and state if its inhibition at 30 µM is at or above 90%.
A. NOT MET

* * *

Test system: MMP-13
Experiment: MMP-13 Production Inhibition Test
Format: cell-based, human
Conditions: Homo sapiens; 30 μmol/L; SW1353 cells stimulated with IL-1β 10 ng/mL; MMP-13 in culture supernatant by ELISA 16 hours after stimulation; read-out: Inhibition rate (%) at 30 μmol/L
measuredEndpoint: inhibition at 30 µM (%)
Number only, in %; omit the unit.

O=C(Nc1cc(-c2cccc(Cl)c2)ccc1C(=O)O)c1ccc(O)cc1    97
O=C(O)c1ccc(CCc2ccccc2)cc1NC(=O)c1ccccc1C(F)(F)F    91
O=C(Nc1cc(-c2ccccc2)ccc1C(=O)O)c1ccc(O)cc1    79
O=C(Nc1cc(Oc2ccccc2)ccc1C(=O)O)c1cccc(-c2ccccc2)c1    99
O=C(Nc1cc(-c2c(F)cccc2F)ccc1C(=O)O)c1ccccc1    68
O=C(Nc1cc(Oc2ccc(F)cc2)ccc1C(=O)O)c1ccccc1    85
O=C(Nc1cc(Oc2ccccc2)ccc1C(=O)O)c1ccc(-n2cccc2)cc1    99
O=C(Nc1cc(-c2ccc(F)cc2F)ccc1C(=O)O)c1ccc(F)cc1    96

Q. Endpoint output: inhibition at 30 µM of `O=C(Nc1cc(CCc2ccccc2)ccc1C(=O)O)c1ccc(Cl)c(Cl)c1` . Value?
A. 98

* * *

// reported inhibition at 30 µM for each item listed
Tested on: MMP-13
Test: MMP-13 Production Inhibition Test
Format: cell-based, human
Details: Homo sapiens; 30 μmol/L; SW1353 cells stimulated with IL-1β 10 ng/mL; MMP-13 in culture supernatant by ELISA 16 hours after stimulation; read-out: Inhibition rate (%) at 30 μmol/L
Number only, in %; omit the unit.

Some solved entries appear below for comparison.
O=C(Nc1cc(OCc2ccccc2)ccc1C(=O)O)c1ccccc1 [Example 99, 2-(benzamido)-4-(benzyloxy)benzoic acid]    71
O=C(Nc1cc(-c2ccccc2)ccc1C(=O)O)c1ccc(F)c(F)c1 [Example 450]    98
O=C(Nc1cc(/C=C/c2cc(F)cc(F)c2)ccc1C(=O)O)c1ccccc1 [Example 130]    96

Q. Endpoint output: inhibition at 30 µM of O=C(Nc1cc(CCc2ccccc2)ccc1C(=O)O)c1ccc(C(F)(F)F)cc1 [Example 264] . Value?
A. 94

Q. Another compound: O=C(Nc1cc(Oc2ccccc2)ccc1C(=O)O)c1ccc(Cl)c(Cl)c1 [Example 442]
A. 99

Q. Another compound: COc1ccc(-c2ccc(C(=O)O)c(NC(=O)c3ccccc3)c2)cc1 [Example 22]
A. 81

Q. Another compound: COc1ccc(-c2ccc(C(=O)O)c(NC(=O)c3ccccc3)c2)cc1Cl [Example 423]
A. 98

Q. Another compound: O=C(Nc1cc(-c2ccc(O)cc2)ccc1C(=O)O)c1ccc(C(F)(F)F)cc1 [Example 176]
A. 98

* * *

System: MMP-13
Assay: MMP-13 Production Inhibition Test
Format: cell-based, human
Details: Homo sapiens; 30 μmol/L; SW1353 cells stimulated with IL-1β 10 ng/mL; MMP-13 in culture supernatant by ELISA 16 hours after stimulation; read-out: Inhibition rate (%) at 30 μmol/L
measuredEndpoint: inhibition at 30 µM (%)
Number only, in %; omit the unit.

Cc1cccc(C(=O)Nc2cc(Oc3ccccc3)ccc2C(=O)O)c1 [Example 325]    91
O=C(CCCc1ccccc1)Nc1cc(Oc2ccccc2)ccc1C(=O)O [Example 467]    90
O=C(Nc1cc(Oc2ccccc2)ccc1C(=O)O)c1ccc(N2CCOCC2)nc1 [Example 330]    68
O=C(Nc1cc(Oc2ccccc2)ccc1C(=O)O)c1ccc2c(c1)OCCO2 [Example 83]    93

Q. Endpoint output: inhibition at 30 µM of O=C(Nc1cc(Oc2cccc(Cl)c2)ccc1C(=O)O)c1ccccc1 [Example 551] . Value?
A. 86

Q. Another compound: COc1cccc(Oc2ccc(C(=O)O)c(NC(=O)c3ccccc3)c2)c1 [Example 543]
A. 85

Q. Another compound: O=C(Nc1cc(-c2ccccc2)ccc1C(=O)O)c1ccc(-n2cccc2)nc1 [Example 509]
A. 77

Q. Another compound: Cc1ccc(-c2ccc(C(=O)O)c(NC(=O)c3ccccc3)c2)cc1Cl [Example 426]
A. 98

Q. Another compound: O=C(Nc1cc(-c2cc(Cl)ccc2Cl)ccc1C(=O)O)c1ccccc1 [Example 425]
A. 99

* * *

Test system: MMP-13
Assay: MMP-13 Production Inhibition Test
Assay type: cell-based, human
Settings: Homo sapiens; 30 μmol/L; SW1353 cells stimulated with IL-1β 10 ng/mL; MMP-13 in culture supernatant by ELISA 16 hours after stimulation; read-out: Inhibition rate (%) at 30 μmol/L
Structures can show the parent of a compound that is named as a salt.
measuredEndpoint: inhibition at 30 µM (%)
Number only, in %; omit the unit.

O=C(Nc1cc(-c2ccc(Cl)cc2)ccc1C(=O)O)c1ccccc1    95

Q. Endpoint output: inhibition at 30 µM of `O=C(O)c1ccc(Oc2ccccc2)cc1NS(=O)(=O)c1ccccc1` . Value?
A. 80

Q. Another molecule: `O=C(Nc1cc(-c2ccccc2)ccc1C(=O)O)c1ccccc1F`
A. 75

Q. Another molecule: O=C(Nc1cc(-n2cnc3ccccc32)ccc1C(=O)O)c1ccccc1 [Example 415, hydrochloride]
A. 97

Q. Another molecule: `O=C(O)c1ccc(Oc2ccccc2)cc1NC(=O)C1CCCCC1`
A. 60

Q. Another molecule: `O=C(Nc1cc(/C=C/c2cccc3nsnc23)ccc1C(=O)O)c1ccccc1`
A. 97

Q. Another molecule: `O=C(Nc1cc(CCc2ccccc2)ccc1C(=O)O)c1ccc(F)c(F)c1`
A. 98

Q. Another molecule: `COc1cccc(/C=C/c2ccc(C(=O)O)c(NC(=O)c3ccc4c(c3)OCO4)c2)c1`
A. 98

Q. Another molecule: `O=C(Nc1cc(Oc2ccc(C(F)(F)F)cc2)ccc1C(=O)O)c1ccccc1`
A. 98

Q. Another molecule: `O=C(Nc1cc(CCc2ccccc2)ccc1C(=O)O)c1ccc(N2CCCCC2)nc1`
A. 87

Q. Another molecule: `CC(=O)c1cccc(C(=O)Nc2cc(Oc3ccccc3)ccc2C(=O)O)c1`
A. 82

Q. Another molecule: `Cc1cccc(-c2ccc(C(=O)O)c(NC(=O)c3ccccc3)c2)c1C`
A. 95

* * *

System: MMP-13
Test: MMP-13 Production Inhibition Test
Assay type: cell-based, human
Conditions: Homo sapiens; 30 μmol/L; SW1353 cells stimulated with IL-1β 10 ng/mL; MMP-13 in culture supernatant by ELISA 16 hours after stimulation; read-out: Inhibition rate (%) at 30 μmol/L
// reported inhibition at 30 µM for each item listed
Number only, in %; omit the unit.

O=C(Nc1cc(-c2cccs2)ccc1C(=O)O)c1ccccc1 [Example 7]    91
O=C(Nc1cc(/C=C/c2ccc(F)cc2F)ccc1C(=O)O)c1ccccc1 [Example 141]    95
O=C(Nc1cc(-c2cccc(Cl)c2)ccc1C(=O)O)c1ccccc1 [Example 222]    98
O=C(/C=C/c1cccc(Cl)c1)Nc1cc(-c2ccccc2)ccc1C(=O)O [Example 358]    99
O=C(C=Cc1ccccc1)Nc1cc(Oc2ccccc2)ccc1C(=O)O [Example 91, 2-(Cinnamamido)-4-phenoxybenzoic acid]    95

Q. Endpoint output: inhibition at 30 µM of Cc1ccc(C(=O)Nc2cc(CCc3ccccc3)ccc2C(=O)O)cc1C [Example 261] . Value?
A. 94

Q. Another compound: O=C(Nc1cc(-c2cc3ccccc3o2)ccc1C(=O)O)c1ccccc1 [Example 8]
A. 95

Q. Another compound: O=C(Nc1cc(CCCCc2ccccc2)ccc1C(=O)O)c1ccccc1 [Example 33]
A. 97

Q. Another compound: COc1ccc(-c2ccc(C(=O)O)c(NC(=O)c3ccccc3)c2)cc1OC [Example 411]
A. 81

Data provenance: patent US7999132B2
